Below is a list of entries, each paired with its recorded kcat of FX activation by FIXa (Xase complex with FVIIIa, PC/PS vesicles, Ca2+) value.
measurementTarget: Factor X (FX), P00742
Sequence (P00742 whole entry, looked up): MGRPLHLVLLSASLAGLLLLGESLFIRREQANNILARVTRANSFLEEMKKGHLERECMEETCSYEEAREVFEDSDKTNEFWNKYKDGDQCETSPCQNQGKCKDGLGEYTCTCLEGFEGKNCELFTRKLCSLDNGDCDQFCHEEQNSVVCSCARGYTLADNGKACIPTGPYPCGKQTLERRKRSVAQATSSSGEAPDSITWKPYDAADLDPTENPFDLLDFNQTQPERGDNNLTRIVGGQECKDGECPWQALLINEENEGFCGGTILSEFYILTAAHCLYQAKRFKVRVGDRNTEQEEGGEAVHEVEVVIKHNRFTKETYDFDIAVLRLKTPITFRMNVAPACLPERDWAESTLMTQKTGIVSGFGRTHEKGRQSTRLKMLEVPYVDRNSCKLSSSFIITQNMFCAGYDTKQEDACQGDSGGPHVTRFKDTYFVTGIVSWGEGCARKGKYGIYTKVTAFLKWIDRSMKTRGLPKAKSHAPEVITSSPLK
Use s⁻¹ as the unit, but write only the number.

Which kcat of FX activation by FIXa (Xase complex with FVIIIa, PC/PS vesicles, Ca2+) is listed for FIXa-R318Y/R338E/N346D/R403E/E410N (protein) chain 1: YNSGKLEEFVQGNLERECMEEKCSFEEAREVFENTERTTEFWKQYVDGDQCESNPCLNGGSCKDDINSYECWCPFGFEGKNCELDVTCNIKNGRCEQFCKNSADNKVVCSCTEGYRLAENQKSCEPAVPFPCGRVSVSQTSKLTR chain 2: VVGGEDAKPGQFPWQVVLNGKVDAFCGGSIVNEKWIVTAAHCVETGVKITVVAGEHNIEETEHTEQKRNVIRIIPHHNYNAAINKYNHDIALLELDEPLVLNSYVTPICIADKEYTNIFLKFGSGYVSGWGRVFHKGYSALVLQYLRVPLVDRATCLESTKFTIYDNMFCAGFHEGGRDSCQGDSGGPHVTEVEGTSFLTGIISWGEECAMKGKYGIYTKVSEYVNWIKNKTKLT ?
2.5

What do you have for FIXa-Y155F/R318Y/R338E/N346D/R403E/E410N (protein) chain 1: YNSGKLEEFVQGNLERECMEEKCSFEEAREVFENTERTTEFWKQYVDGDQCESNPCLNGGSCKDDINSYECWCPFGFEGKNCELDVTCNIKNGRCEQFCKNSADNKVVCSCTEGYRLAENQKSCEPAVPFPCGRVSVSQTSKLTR chain 2: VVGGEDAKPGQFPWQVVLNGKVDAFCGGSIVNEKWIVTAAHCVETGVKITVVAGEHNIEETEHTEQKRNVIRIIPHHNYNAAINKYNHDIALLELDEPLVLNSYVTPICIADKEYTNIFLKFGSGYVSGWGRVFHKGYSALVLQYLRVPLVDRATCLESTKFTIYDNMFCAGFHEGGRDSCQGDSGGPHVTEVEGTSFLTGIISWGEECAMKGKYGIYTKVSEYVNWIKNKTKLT ?
6.4
